# target: Factor X, P00742
# Sequence (P00742 whole entry, looked up): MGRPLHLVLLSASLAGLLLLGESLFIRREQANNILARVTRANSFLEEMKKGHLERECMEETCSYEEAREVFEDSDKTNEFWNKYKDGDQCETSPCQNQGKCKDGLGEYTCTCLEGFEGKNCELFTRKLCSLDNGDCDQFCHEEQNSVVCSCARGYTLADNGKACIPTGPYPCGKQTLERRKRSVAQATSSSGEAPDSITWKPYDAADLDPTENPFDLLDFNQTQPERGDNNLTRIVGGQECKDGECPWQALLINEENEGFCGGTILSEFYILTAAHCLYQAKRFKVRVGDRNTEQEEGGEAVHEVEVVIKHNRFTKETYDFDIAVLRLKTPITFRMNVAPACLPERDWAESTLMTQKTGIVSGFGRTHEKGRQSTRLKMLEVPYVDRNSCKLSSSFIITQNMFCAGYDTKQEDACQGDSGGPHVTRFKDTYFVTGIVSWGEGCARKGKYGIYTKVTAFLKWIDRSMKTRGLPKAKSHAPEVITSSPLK
measure: KM

>  <protein>
FIXa-K247N/N249S/R318Y/R338E/R403E/E410N (protein) chain 1: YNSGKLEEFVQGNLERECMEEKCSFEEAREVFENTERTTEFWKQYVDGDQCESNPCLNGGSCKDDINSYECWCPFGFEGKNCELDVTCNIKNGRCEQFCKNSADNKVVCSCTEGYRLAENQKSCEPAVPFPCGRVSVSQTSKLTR chain 2: VVGGEDAKPGQFPWQVVLNGKVDAFCGGSIVNEKWIVTAAHCVETGVKITVVAGEHNIEETEHTEQNRSVIRIIPHHNYNAAINKYNHDIALLELDEPLVLNSYVTPICIADKEYTNIFLKFGSGYVSGWGRVFHKGYSALVLQYLRVPLVDRATCLESTKFTIYNNMFCAGFHEGGRDSCQGDSGGPHVTEVEGTSFLTGIISWGEECAMKGKYGIYTKVSEYVNWIKNKTKLT

>  <measure>
KM

>  <reported_measurement>
0.0392 µM

$$$$
